Test: small-molecule binders of probe aInhba, primary screen, biochemical, small-molecule microarray, 635/667 nm fluorescence (AID 1148);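 note: score merges 667nm spot fluorescence with signal-to-noise for antibody binding to printed compounds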
Conditions: higher = more signal
experimental_readout: composite z-score

compound=COC(=O)CC=C[C@@H](C)[C@@H](C=NOC[C@@H](O)COCc1ccco1)OC experimental_readout="composite z-score" result_value=-0.214

Hi! Can you tell me composite z-score for each of these compounds?
1. COC(=O)CC=C[C@@H](C)[C@@H](C=NOC(C)CN1CCCCc2nc(C)c(C)cc21)NS(=O)(=O)c1ccc(C)cc1 (some centres undefined)
2. O=C1C=C[C@@H](O)[C@@H]2[C@@H]3C(=O)N(c4cccc(Oc5ccccc5)c4)C(=O)[C@@H]3CC[C@@H]12

**A:**
-0.0221
-0.128

**Q:** Which composite z-score value is on record for CCOC(=O)[C@H](CC(C)C)NC(=O)CCC1CC(OC(=O)NCc2ccc3c(c2)OCO3)CC2(CCCC(COC(=O)NCc3ccccc3)O2)O1 (some centres undefined) ?
**A:** 0.0712
